# System: rodent lifetime carcinogenesis bioassay, tumor incidence TD50
# PROTOCOL DETAILS: carcinogenic potency in animals, long-term in vivo studies, CPDB compilation (AID 1745844)
# MEASUREMENT PARAMETERS: mouse; strain B6C3F1; males; in drinking water; site: liver; lesion: hepatocellular carcinoma; dosed 104 weeks; study length 104 weeks
Activity calls are given as the source filed them. How the calls were made is not given here.
VALUE TYPE: TD50

Look up and report measured TD50 for this entry: ClCCl 2350 mg/kg/day (inactive)

* * *

# Test system: rodent lifetime carcinogenesis bioassay, tumor incidence TD50
# PROTOCOL DETAILS: carcinogenic potency in animals, long-term in vivo studies, CPDB compilation (AID 1745844)
# MEASUREMENT PARAMETERS: rat; strain Wistar albino; females; in feed; site: liver; lesion: bile duct tumor; dosed 33 weeks; study length 56 weeks
VALUE TYPE: TD50

Look up and report measured TD50 for this entry: CN(C)c1ccc(N=Nc2ccccc2)cc1 4.9 mg/kg/day

Source: PubChem BioAssay AID1745844
